Tested on: RXF 393 renal
ASSAY_NOTES: NCI-60 one-dose screen, 48 h (100 = growth as untreated, 0 = no growth, -100 = all killed)
CONDITION_DESCRIPTION: 10 µM unless noted
Compounds without any hit were thinned out: in the full panel of roughly 83,000, 20% have a hit.
Label Yes when growth is strictly below 60%; otherwise label No.

[[record]]
compound = "N#CSCc1cc(Cl)c(CSC#N)cc1Cl"
answer_label = "Yes"

[[record]]
compound = "C=CCn1c(SCC(=O)Nc2ccc(C(=O)/C=C/c3cc(OC)c(OC)c(OC)c3)cc2)nnc1-c1cc(-c2ccc(S(N)(=O)=O)cc2)nc2ccccc12"
answer_label = "No"

[[record]]
compound = "C(CCCSC1=NCCN1)CCSC1=NCCN1"
answer_label = "No"

[[record]]
compound = "O=C(Nc1ccccc1C(F)(F)F)C1=NCCCCN1"
answer_label = "No"

[[record]]
compound = "COc1cc2c(c(OC)c1OC)CCC(c1cccc(C(=O)Nc3ccc([N+](=O)[O-])cc3)c1)O2 (configuration not stated)"
answer_label = "No"

[[record]]
compound = "COC(=O)[C@H](C)NC(=O)[C@@H]1CCCN1C(=O)CNC(=O)[C@H](C)N"
answer_label = "No"

[[record]]
compound = "CC1=NC(=S)NC(c2ccccc2)/C1=C1/CC(c2ccccc2O)NN1 (configuration not stated)"
answer_label = "No"

[[record]]
compound = "CC(C)(C)c1ccc(C(=O)Nc2sc3c(c2C#N)CCC(=O)C3)cc1"
answer_label = "Yes"

[[record]]
compound = "COc1cc(NC(=O)c2cncnc2Nc2ccc3c(ccn3Cc3cccc(F)c3)c2)cc(OC)c1"
answer_label = "No"

[[record]]
compound = "CN1CCN(Cc2ccc(NC(=O)c3cncc(C#Cc4cnc(N)c5ccc(C#N)cc45)c3)cc2C(F)(F)F)CC1"
answer_label = "Yes"

[[record]]
compound = "COc1ccc(-c2nc(SCCC(C)C)nc(N/N=C(/C)c3ccc(N)cc3)c2C#N)cc1"
answer_label = "No"


---

Tested on: RPMI-8226 leukemia
ASSAY_NOTES: NCI-60 one-dose screen, 48 h (100 = growth as untreated, 0 = no growth, -100 = all killed)
CONDITION_DESCRIPTION: 10 µM unless noted
The panel holds about 83,000 compounds, 20% with a hit somewhere; the sample as a whole holds those more often.
Lab note: anything with growth at or over 60% counts as t; the rest go in f.

[[record]]
compound = "CCN(CC)c1ccc(/C=N/NC(=O)c2ccccc2Nc2ccnc(C(F)(F)F)c2)c(O)c1"
system = "RPMI-8226 leukemia"
answer_label = "f"

[[record]]
compound = "Cc1c(C)c2c(c(C)c1OC(=O)CCC(=O)[O-])CCC(C)(CCCCCCCCCCC[P+](c1ccccc1)(c1ccccc1)c1ccccc1)O2 (configuration not stated)"
system = "RPMI-8226 leukemia"
answer_label = "f"

[[record]]
compound = "CN1CCN(Cc2ccc(NC(=O)c3cncc(C#Cc4c(N)ncc5cc(F)ccc45)c3)cc2C(F)(F)F)CC1"
system = "RPMI-8226 leukemia"
answer_label = "f"

[[record]]
compound = "CCN1C(=O)N(CC)C2C1NN=c1s/c(=C3\\C(=O)N(C)c4ccccc43)c(=O)n12 (configuration not stated)"
system = "RPMI-8226 leukemia"
answer_label = "t"

[[record]]
compound = "CS(=O)(=O)c1cccc(Nc2ncc3cc(-c4ccccc4Cl)ccc3n2)c1"
system = "RPMI-8226 leukemia"
answer_label = "f"

[[record]]
compound = "COc1ccc(-c2cn(Cc3ccc4c(Br)cc(Br)c(O)c4n3)nn2)cc1"
system = "RPMI-8226 leukemia"
answer_label = "t"

[[record]]
compound = "O=c1c2cccc3c(N4CCOCC4)ccc(c32)c2nc3ccccc3n12"
system = "RPMI-8226 leukemia"
answer_label = "t"


---

Test system: HT29 colon
ASSAY_NOTES: NCI-60 one-dose screen, 48 h
CONDITION_DESCRIPTION: 10 µM unless noted
The panel holds about 83,000 compounds, 20% with a hit somewhere; the sample as a whole holds those more often. Active and inactive are the calls of the source. The calls were made as follows: active = growth percent below 10; inactive = the rest.
Labels: YES = active, NO = inactive

[[record]]
compound = "COc1ccc(-c2csc(NC(=O)CSc3nc(C)cc(=O)[nH]3)n2)cc1"
answer_label = "NO"

[[record]]
compound = "CCN=c1sc2c(n1NC(=O)c1cc3ccc1CCc1ccc(cc1)CC3)C(=O)c1ccccc1C2=O"
answer_label = "NO"

[[record]]
compound = "COc1ccc(-c2nc(SCCC(C)C)nc(N/N=C(/C)c3ccc(N)cc3)c2C#N)cc1"
answer_label = "NO"

[[record]]
compound = "CCOC(=O)/C(=C\\c1ccccc1Cl)P(=O)(OCC)OCC"
answer_label = "NO"

[[record]]
compound = "O=C(/C=C/c1ccc(Cl)cc1)c1ccc(Nc2ccnc3cc(Cl)ccc23)cc1"
answer_label = "NO"

[[record]]
compound = "N#C/C(=N\\Nc1ccccc1)C(=O)Nc1cc(-c2ccccc2)nn1-c1ccccc1"
answer_label = "NO"

[[record]]
compound = "CCOC(=O)c1ccc2c(c1)c1c(C)c3cnccc3c(C)c1n2C"
answer_label = "YES"

[[record]]
compound = "CCCC[N+]1(C)CCN=C1Cc1ccccc1 (stereo not given)"
answer_label = "NO"

[[record]]
compound = "Cc1ccc(-c2nc(C#N)c(S(=O)(=O)n3nc(C)cc3N)o2)cc1"
answer_label = "NO"

[[record]]
compound = "COc1cc(C(=O)n2nc(NCCCc3ccccc3)c3cc(N)ccc32)cc(OC)c1OC"
answer_label = "NO"


---

Tested on: K-562 leukemia
ASSAY_NOTES: NCI-60 one-dose screen, 48 h (100 = growth as untreated, 0 = no growth, -100 = all killed)
CONDITION_DESCRIPTION: 10 µM unless noted
Compounds without any hit were thinned out: in the full panel of roughly 83,000, 20% have a hit.
OUTCOME_MEASURE: growth (%)

[[record]]
compound = "Cn1ccnc1C(=O)/C=C/c1ccc(CC(=O)Nc2cc(F)c(F)c(F)c2)cc1"
val = 12.6

[[record]]
compound = "COc1ccc(-c2ccc(-c3ccc(C(=N)N)nc3)s2)cc1"
val = -27

[[record]]
compound = "CCn1c2ccccc2c2cc(C(O)c3cccc4ncccc34)ccc21 (stereo not drawn)"
val = 8.65

[[record]]
compound = "CCCc1cc(CCC)n2nc(N)nc2n1"
val = 121

[[record]]
compound = "Clc1nc(N2CCC[N+]3(CC2)CC[N+]2(CCCNCC2)CC3)nc(N2CCC[N+]3(CC2)CC[N+]2(CCCNCC2)CC3)n1 (stereo not drawn)"
val = 104

[[record]]
compound = "C=C(C)[C@@H]1CC[C@]2(C(=O)NC(C)=O)CC[C@]3(C)[C@H](CC[C@@H]4[C@@]5(C)CCCNC(C)(C)[C@@H]5CC[C@]43C)[C@@H]12"
val = 3

[[record]]
compound = "Cc1ccc(-c2nc(C#N)c(S(=O)(=O)n3nc(C)cc3N)o2)cc1"
val = -17.2

[[record]]
compound = "O=C(/C=C/C12c3ccccc3C(c3ccccc31)C1C(=O)NC(=O)C12)c1cccs1 (stereo not drawn)"
val = 16.8

[[record]]
compound = "Cc1nn(-c2ccccc2)c(Oc2ccccc2)c1/C=N/NC(=O)Cn1c(=O)sc2ccccc21"
val = 25.2

[[record]]
compound = "CCN(CC)c1ccc(/C=N/NC(=O)c2ccccc2Nc2ccnc(C(F)(F)F)c2)c(O)c1"
val = 62.9

[[record]]
compound = "C[C@@H]1N=C(c2ccc(Cl)cc2Cl)Nc2nc3ccccn3c2C1=O"
val = 23.6

[[record]]
compound = "N#Cc1nn(-c2ccccn2)c(N)c1C#N"
val = 94

[[record]]
compound = "O=C(CSc1nc(-c2ccccc2)cn1-c1ccc(Cl)cc1)c1ccc([N+](=O)[O-])cc1"
val = 76.7


---

Tested on: SF-539 CNS
ASSAY_NOTES: NCI-60 one-dose screen, 48 h (100 = growth as untreated, 0 = no growth, -100 = all killed)
CONDITION_DESCRIPTION: 10 µM unless noted
About 83,000 compounds went through this panel and 20% of them were active in at least one assay; those are over-represented in the sample as a whole. The source made the active and inactive calls. How the source made its calls: active means growth percent below 10; inactive means the rest.
OUTCOME_MEASURE: growth

[[record]]
molecule = "COC(=O)c1c(C)nc(C)c2c1C(=O)C(Br)=C(NCCCCO)C2=O"
outcome_measure = "growth"
val = "89.5% (inactive)"

[[record]]
molecule = "C#CCOC(=O)C(N)CSSCC(N)C(=O)O (centres undefined)"
outcome_measure = "growth"
val = "90.8% (inactive)"

[[record]]
molecule = "CN1CCN(Cc2ccc(NC(=O)c3cc(C#Cc4cnc(N)c5ncccc45)n(C)n3)cc2C(F)(F)F)CC1"
outcome_measure = "growth"
val = "70.5% (inactive)"

[[record]]
molecule = "Cc1ccc(C(F)(F)F)cc1N1CCN(C(=O)[C@H]2C[C@H]2c2ccc(C(F)(F)F)nc2)CC1"
outcome_measure = "growth"
val = "88.6% (inactive)"

